Target: GST A2-2 (Homo sapiens, UniProt P09210)
Sequence (P09210 whole entry): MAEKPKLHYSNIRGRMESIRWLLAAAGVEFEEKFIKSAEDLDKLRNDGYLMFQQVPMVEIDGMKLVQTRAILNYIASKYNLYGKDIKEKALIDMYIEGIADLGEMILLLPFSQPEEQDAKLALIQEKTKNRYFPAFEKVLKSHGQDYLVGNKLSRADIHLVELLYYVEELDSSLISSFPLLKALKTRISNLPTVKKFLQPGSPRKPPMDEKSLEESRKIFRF
Conditions: read-out: IC50 Values GST A2-2

Entry Smiles	IC50 (nM)
CCC[CH2][Sn]([CH2]CCC)([CH2]CCC)[O]C(C)=O	410

----------
Molecular target: GST A3-3 (Homo sapiens)
Sequence (Q16772 1-222): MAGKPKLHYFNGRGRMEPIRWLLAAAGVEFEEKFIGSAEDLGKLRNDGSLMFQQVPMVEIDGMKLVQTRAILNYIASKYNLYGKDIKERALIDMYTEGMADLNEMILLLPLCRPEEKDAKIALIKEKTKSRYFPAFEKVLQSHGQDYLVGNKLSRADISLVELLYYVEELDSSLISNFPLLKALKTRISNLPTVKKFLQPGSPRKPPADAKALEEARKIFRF
Test: biochemical
pIC50: −log10 of the molar value.
Each entry below lists one item and its recorded pIC50 value.
Measure Name: pIC50

Entry Smiles	Experimental System	Reading
C[CH2][Ge]([Cl])([CH2]C)[CH2]C	GST A3-3 (Homo sapiens)	4.17
[Br][Pb]([c]1ccccc1)([c]1ccccc1)[c]1ccccc1	GST A3-3 (Homo sapiens)	6.80
[Cl][Pb]([c]1ccccc1)([c]1ccccc1)[c]1ccccc1	GST A3-3 (Homo sapiens)	7.89
C[CH2][Pb]([Cl])([CH2]C)[CH2]C	GST A3-3 (Homo sapiens)	5.64

Data credit: patent US20060148020A1
